Biological target: T1, Ep-CAM (UniProt P16422 24-265, limits assumed)
T1 construct: Antigen of the Biacore analysis of ING-1 variants
T1 sequence (looked up): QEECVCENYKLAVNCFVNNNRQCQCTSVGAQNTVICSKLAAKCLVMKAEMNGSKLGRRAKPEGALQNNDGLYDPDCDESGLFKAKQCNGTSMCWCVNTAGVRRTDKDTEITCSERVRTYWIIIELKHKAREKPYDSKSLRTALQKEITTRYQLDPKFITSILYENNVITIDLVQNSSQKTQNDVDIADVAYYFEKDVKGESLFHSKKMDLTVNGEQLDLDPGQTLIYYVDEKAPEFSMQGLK
Assay: Biacore, Fab periplasmic extract
Value Kind: binding result

binder="ING-1 heavy chain N52S (Fab, V domains shown) VH: QIQLVQSGPELKKPGETVKISCKASGYTFTKYGMNWVKQAPGKGLKWMGWISTYTEEPTYGDDFKGRFAFSLETSASTANLQINNLKSEDTATYFCARFGSAVDYWGQGTSVTVSS VL: DIVMTQAAFSNPVTLGTSGSISCRSSKSLLHSNGITYLYWYLQKPGQSPQLLIYQMSNLASGVPDRFSSSGSGTDFTLRISRVEAEDVGVYYCAQNLELPRTFGGGTKLEMKR" recorded_value="no binding"
binder="ING-1 heavy chain D104K (Fab, V domains shown) VH: QIQLVQSGPELKKPGETVKISCKASGYTFTKYGMNWVKQAPGKGLKWMGWINTYTEEPTYGDDFKGRFAFSLETSASTANLQINNLKSEDTATYFCARFGSAVKYWGQGTSVTVSS VL: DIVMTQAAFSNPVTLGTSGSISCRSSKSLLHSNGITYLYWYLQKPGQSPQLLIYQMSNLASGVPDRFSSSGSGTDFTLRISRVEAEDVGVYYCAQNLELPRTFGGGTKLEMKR" recorded_value="no binding"
